Assay: yeast display, Sf9 membrane polyspecificity reagent, FACS + sequencing; frameworks hold sequencing errors
Experimental readout: polyreactivity (PSR sort gate)

Worked examples, 10 sequences total:
- QVQLVESGGGLVQAGVSLRLSCAASGSIFRIYGMGWYRQAPGKEREFVAAITHSGGSTYYADSVKGRFTISRDNAKNTVYLQMNSLKPEDTAVYYCAAEDYNYWSYDYWGQGTQVTVSS: low polyreactivity
- QVQLVDSGGGLVQAGGSLRLSCAASGIIFVGYAMGWYRQAPGKERELVAAITYNVGSTYYADSVKGRFTISRDNAKNTVYLQMKSLKPEDTAVYYCNADRYPFFDLLISRYGSNPYDYWGQGTQVTVSS: low polyreactivity
- QVQLVESGGGLVQAGGSLRLSCASSVRTLAYNSRGCYRQATGKERELVASITSGGSTNYADSVKGRFTISRDNAKNTVYLQMNSLKPEDTAVYYCNKDGKYHRVLYDYWGQGTQVTVSS: low polyreactivity
- QVQLVESGGGLVQAGGSLRLSCAASGSTFYTNAKGWYRQAPGKEREFVAAISWAGSSTYADSVKGRFTISRDNAKTTVYLQMHSLKPEDTAVYYCNADVLDGGYDYWGQGTQVTVSS: low polyreactivity
- QVQLVESGGGLVQAGGSLRLSCAASGFTFTVYAMGWYRQAPGKERELVAVITAGDGTYYADSVKGRFTISRDNAKNTVYLQMNSLKPEDTAVYYCIALRYSSFRYLFAYDYWGQGTQVTVSS: low polyreactivity
- QVQLVESGGGLVQAGGSLRLSCAASGRIFSWYAMGWYRQAPGKEREMVARITTRGGNTYYADSVKGRFTISRDNAKNTVFLQMNSLKPEDTAVYYCAARHPYPIYDYWGQGTQVTVSS: low polyreactivity
- QVQLVESGGGLVQAGGSLRLSCAASGSILPYNAMGWYRQAPGKERELVASISRGGGTNYADSVKGRFTISRDNAKNTVYLQMNSLKPEDTAVYYCAARTLRVDYDSHWYSLVDYWGQGTQVTVSS: low polyreactivity
- QVQLVESGGGLVQAGGSLRLSCAASARILRRNAMGWYRQAPGKEREFVAAITWRGGSTYYADSVKGRFTISRDNAKNTVYLQMNSLKPEDTAVYYCAADTYSVEYVLPYYYWGQGTQVTVSS: high polyreactivity
- QVQLVESGGGLVQAGGSLRLSCAASGRIFSVYSMGWYRQAPGKERELVAAIRSGDRTNYADSVKGRFTISRDNAKNTVYLQMISLKPEVTAVYYCAAVRYPNWYDYWGHGTQVTVSS: high polyreactivity
- QVQLVESGGGLVQAGGSLRLSCAASGRTITRNALGWYRQAPGKERELVASINRGGSTNYADSVKGRFTISRDNAKNTDYLQMNSLNPEDTAVYYCYYHVYEQYFWVEYDYWGQGTQVTVSS: high polyreactivity

Please turn your attention to the following entry.
Problem: Quote polyreactivity (PSR sort gate) reported for QVQLVESGGGLVQAGGSLRISCASSGSIFYLNAMGWYRQAPGKERELVAAISRRGGTTSYADSVKGRFTISRDNAKNTVFLQMNSLKPEDTAVYYCAKRTKPSKNYYYWGQGTQVTVSS please.
Result: high polyreactivity

###

Assay: yeast display, Sf9 membrane polyspecificity reagent, FACS + sequencing; frameworks hold sequencing errors
Experimental readout: polyreactivity (PSR sort gate)

• QVQLVDSGGGLVQAGGSLRLSCAASGSTVKYAMGWYRQAPGKERELVASIRRSGGSTYYADSVKGRFTISRDNAKITVYLKMNSLNPEDTAVYYCAAPLFRWMDYWGQGTQVTVSS = high polyreactivity
• QVQLVESGGGLVQAGGSLRLSCAASGRIFRYYAMGWYRQATGKQRELVAAISSGVGNTYYADSVKGRFTISRDNAKNTVYLQMNSLKPEDTAVYYCNAKWRKFGTVRYDYWGQGTQVTVSS = high polyreactivity
• QVQLVESGGGLVQAGGSLRLSCAASGNTFVGYTMGWYRQAPGKEWELVAAISWNGGTTYYADSVKGRFTISRDNAKNTVYLQMNSLKPEDTAVYYCNTRWYTRRFDYWGQGTQVTVSS = high polyreactivity
• QVQLVESGGGLVQAGGSLRLICAASGSIFRYYAMGWYRQAPGKERELVATISWSGGGTYYADSVKGRFTISRHNAKNTVYLQMNSLKPEDTAVYYCAADYGEQYVYWGQGTQVTVSS = low polyreactivity

Please turn your attention to the following entry.
Problem: Quote polyreactivity (PSR sort gate) reported for QVQLVESGGGLVQAGGSLRLSCAASGSIFSWYAMGWYRQAPGKERELVAAIRRGGSTYYADSVKGRFTISRDNAKNTVYLQMNSLKPEDTAVYYCAARVYTAASRGRGDYWGQGTQVTVSS please.
Result: low polyreactivity
